Assay: TOX21_p53_BLA_p4_viability: Viability Assessment in the Tox21 HCT-116 p53 Agonism Beta-lactamase Assay, Phase 4 (AID 2283597);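 also: hits lower the luminescence signal meaning cytotoxicity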
Excerpt: TOX21_p53_BLA_p4 is a cell-based, single-readout assay that uses HCT116, a human intestinal cell line, […] in a 1536-well plate.TOX21_p53_BLA_p4_viability is an assay readout measuring cellular ATP content and detected with CellTiter-Glo Luciferase-coupled ATP quantitation.TOX21_p53_BLA_p4_viability used a type of viability reporter where loss-of-signal activity can be used to understand changes in the cell viability. […]
Records with an inconclusive call do not appear. The source made the active and inactive calls. The calls were made as follows: active = hit-call score of the fitted dose curve at least 0.9, where 1 is the maximum; inconclusive = response in the unintended direction; inactive = score below 0.9.
Response enum: active, inactive

Inquiry: Called result for c1cc(N(CC2CO2)CC2CO2)ccc1Cc1ccc(N(CC2CO2)CC2CO2)cc1 (stereo not given)
Reply text: inactive

Inquiry: Called result for CC(C)(C(=O)c1cccnc1)c1cccnc1
Reply text: inactive

Inquiry: Called result for CCOc1ccc(NC(C)=O)cc1N
Reply text: inactive

Inquiry: Called result for CCCCCCCCC(CCCCCC)C(=O)O (stereo not given)
Reply text: inactive

Inquiry: Called result for C=C[C@]1(C)C[C@@H](OC(=O)CSC(C)(C)CNC(=O)[C@H](N)C(C)C)[C@]2(C)[C@H](C)CC[C@]3(CCC(=O)[C@H]32)[C@@H](C)[C@@H]1O
Reply text: inactive

Inquiry: Called result for NCC[C@H](O)C(=O)N[C@@H]1C[C@H](N)[C@@H](O[C@H]2O[C@H](CN)CC[C@H]2N)[C@H](O)[C@H]1O[C@H]1O[C@H](CO)[C@@H](O)[C@H](N)[C@H]1O
Reply text: inactive

Inquiry: Called result for CCCCCCCCCCCCCC[n+]1ccc(C)cc1
Reply text: inactive

Inquiry: Called result for NC(N)=NCC1COc2ccccc2O1 (stereo not given)
Reply text: inactive

Inquiry: Called result for Cc1ccccc1CNc1ncnc2c1ncn2[C@@H]1O[C@H](CO)[C@@H](O)[C@H]1O
Reply text: inactive

Inquiry: Called result for C1CCC2OC2C1 (stereo not given)
Reply text: inactive

Inquiry: Called result for O=C1OC(=O)c2cc([N+](=O)[O-])ccc21
Reply text: inactive

Inquiry: Called result for CCC(=O)c1c(O)cc(O)cc1O
Reply text: inactive

Inquiry: Called result for CC(=O)[C@@]1(O)CC[C@H]2[C@@H]3C[C@H](C)C4=CC(=O)CC[C@]4(C)[C@H]3CC[C@@]21C
Reply text: inactive

Inquiry: Called result for CSc1nc2cc(Oc3cccc(Cl)c3Cl)c(Cl)cc2[nH]1
Reply text: active

Inquiry: Called result for CC(C(=O)O)c1cccc(C(=O)c2ccccc2)c1 (stereo not given)
Reply text: inactive

Inquiry: Called result for Nc1nc(Cl)nc2c1ncn2[C@@H]1O[C@H](CO)[C@@H](O)[C@@H]1F
Reply text: inactive

Inquiry: Called result for CCCCCCCC/C=C\CCCCCCCC(=O)N(CCO)CCO
Reply text: inactive

Inquiry: Called result for Cc1ccccn1
Reply text: inactive

Inquiry: Called result for CCCCCCCCCCOCC(O)CN (stereo not given)
Reply text: active

Inquiry: Called result for CCCN1CCCC[C@H]1C(=O)Nc1c(C)cccc1C
Reply text: inactive

Inquiry: Called result for CO[Si](CCCNc1ccccc1)(OC)OC
Reply text: inactive

Inquiry: Called result for CCC(CC)(CC(=O)Nc1cccc(/C=C/c2nc(C3CCC3)cs2)c1)C(=O)O
Reply text: inactive

Inquiry: Called result for COc1ccc(CNCC(O)COc2ccc3[nH]c(=O)ccc3c2)cc1OC (stereo not given)
Reply text: inactive

Inquiry: Called result for CC1(C)[C@@H](O)CC[C@]2(C)[C@H]3C(=O)C=C4[C@@H]5C[C@@](C)(C(=O)O)CC[C@]5(C)CC[C@@]4(C)[C@]3(C)CC[C@@H]12
Reply text: inactive

Inquiry: Called result for CN(C)CC/C=C1/c2ccccc2COc2ccc(CC(=O)O)cc21
Reply text: inactive

Inquiry: Called result for Cc1ccc(S(=O)(=O)NC(=O)NN2CC3CCCC3C2)cc1 (stereo not given)
Reply text: inactive

Inquiry: Called result for O=C(Nc1ccc(S(=O)(=O)N2CCOCC2)cc1)c1cc(Cl)ccc1NS(=O)(=O)c1ccc(Cl)s1
Reply text: active

Inquiry: Called result for CC[C@H](C)C(=O)O[C@H]1CCC=C2C=C[C@H](C)[C@H](CC[C@@H]3C[C@@H](O)CC(=O)O3)[C@H]21
Reply text: inactive

Inquiry: Called result for Cc1cc(CC(C)CC(C)(C)C)n(O)c(=O)c1 (stereo not given) (tested in a mixture with another compound)
Reply text: active

Inquiry: Called result for Cc1ccc2c(Br)cc(Br)c(O)c2n1
Reply text: active

Inquiry: Called result for CCN1/C(=C/C=C/c2sc3ccccc3[n+]2CC)Sc2ccccc21
Reply text: active

Inquiry: Called result for CCOc1cc(CC(=O)N[C@@H](CC(C)C)c2ccccc2N2CCCCC2)ccc1C(=O)O
Reply text: inactive

Inquiry: Called result for Clc1nnc(Cl)c2ccccc12
Reply text: inactive

Inquiry: Called result for O=c1cccccc1O
Reply text: inactive

Inquiry: Called result for O=C1Nc2ccc(Cl)cc2[C@@](C#CC2CC2)(C(F)(F)F)O1
Reply text: active

Inquiry: Called result for O=Cc1ccc(Cl)c(Cl)c1
Reply text: inactive

Inquiry: Called result for CCC(C(=O)OCCN(CC)CC)c1ccccc1 (stereo not given)
Reply text: inactive

Inquiry: Called result for O=C1c2ccccc2Cc2ccccc21
Reply text: inactive

Inquiry: Called result for C[C@H]1C[C@H]2[C@@H]3CCC4=CC(=O)C=C[C@]4(C)[C@@]3(F)[C@@H](O)C[C@]2(C)[C@@]1(O)C(=O)CO
Reply text: inactive

Inquiry: Called result for O=S(=O)(c1ccccc1)c1ccc(Cl)cc1
Reply text: inactive

Inquiry: Called result for CCCCN(CCCC)C(=S)SSC(=S)N(CCCC)CCCC
Reply text: inactive

Inquiry: Called result for CC(C)C(O)(c1ccc(OC(F)(F)F)cc1)c1cncnc1 (stereo not given)
Reply text: inactive

Inquiry: Called result for CC(=O)O[C@H]1CC[C@@]2(C)C(=CC[C@H]3[C@@H]4CC[C@H](C(C)=O)[C@@]4(C)CC[C@@H]32)C1
Reply text: inactive

Inquiry: Called result for NCCOCCN
Reply text: inactive

Inquiry: Called result for CCCCCSCCCCC
Reply text: inactive
